# reported Max OD450; entries follow
# assay_system: T1, monkey CDH6 protein (cynoCDH6 ECD-his) (monkey (cyno), UniProt A0A2K5TW62 19-615)
# T1 construct: range 19-615; also called Cyno CDH6-his; not shown: his tag
# T1 sequence: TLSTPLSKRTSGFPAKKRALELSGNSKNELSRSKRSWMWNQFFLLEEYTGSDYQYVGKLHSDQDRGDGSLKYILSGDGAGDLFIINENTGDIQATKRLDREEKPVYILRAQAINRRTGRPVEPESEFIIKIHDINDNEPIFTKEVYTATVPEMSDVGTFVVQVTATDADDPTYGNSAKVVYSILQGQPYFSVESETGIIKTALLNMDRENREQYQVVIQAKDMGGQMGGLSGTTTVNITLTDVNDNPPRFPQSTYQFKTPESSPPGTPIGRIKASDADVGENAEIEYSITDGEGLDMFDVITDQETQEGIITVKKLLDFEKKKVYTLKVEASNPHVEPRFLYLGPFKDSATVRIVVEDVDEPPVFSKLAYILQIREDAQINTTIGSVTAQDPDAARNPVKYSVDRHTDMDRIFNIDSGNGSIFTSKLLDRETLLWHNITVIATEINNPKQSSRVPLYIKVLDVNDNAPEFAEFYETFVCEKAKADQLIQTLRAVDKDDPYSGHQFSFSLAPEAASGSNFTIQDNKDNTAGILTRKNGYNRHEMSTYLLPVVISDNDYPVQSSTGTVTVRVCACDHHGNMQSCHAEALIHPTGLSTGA
# assay_details: ELISA, coated antigen
observed_property: Max OD450 (OD450)

# binder, measured_number
rows = [
    ("CHI-CDH6-1 (antibody, human IgG1, kappa, V domains shown, also called CHI-hCDH6-1; CH1-CDH6-1) VH: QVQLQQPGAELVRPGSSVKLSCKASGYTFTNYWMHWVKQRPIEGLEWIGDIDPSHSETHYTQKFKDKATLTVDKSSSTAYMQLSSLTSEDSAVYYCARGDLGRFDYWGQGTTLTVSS VL: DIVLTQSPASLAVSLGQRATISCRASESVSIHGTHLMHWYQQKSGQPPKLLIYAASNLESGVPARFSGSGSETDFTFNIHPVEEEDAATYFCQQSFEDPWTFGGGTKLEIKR", 2.54),
    ("CHI-CDH6-6 (antibody, human IgG1, kappa, V domains shown, also called CHI-hCDH6-6; chimeric antibody of murine CDH6-6) VH: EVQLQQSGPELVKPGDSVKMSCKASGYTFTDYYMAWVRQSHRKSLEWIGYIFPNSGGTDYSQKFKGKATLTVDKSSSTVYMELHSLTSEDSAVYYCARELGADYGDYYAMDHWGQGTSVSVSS VL: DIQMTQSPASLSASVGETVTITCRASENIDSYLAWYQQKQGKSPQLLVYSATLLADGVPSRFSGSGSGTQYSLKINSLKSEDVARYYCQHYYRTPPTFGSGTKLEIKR", 2.24),
]
